- targetDesc: human vasopressin V2 receptor subtype (Homo sapiens, UniProt P30518)
- Construct: host or cells: CHO cells (pZeoSV vector)
- Sequence (P30518 whole entry): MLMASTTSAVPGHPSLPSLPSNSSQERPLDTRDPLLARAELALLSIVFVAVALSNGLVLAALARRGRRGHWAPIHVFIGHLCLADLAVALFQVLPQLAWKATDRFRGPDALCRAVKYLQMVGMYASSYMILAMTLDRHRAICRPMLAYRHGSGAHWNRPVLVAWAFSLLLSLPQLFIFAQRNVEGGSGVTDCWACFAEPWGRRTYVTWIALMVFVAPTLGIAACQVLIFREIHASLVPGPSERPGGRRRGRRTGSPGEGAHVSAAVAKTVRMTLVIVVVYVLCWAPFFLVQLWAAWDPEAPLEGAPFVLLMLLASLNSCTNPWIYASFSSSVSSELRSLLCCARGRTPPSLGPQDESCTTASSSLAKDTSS
- assayRemarks: Vasopressin binding in Chinese Hamster Ovary cell membranes expressing human vasopressin V2 subtype receptors
- appliedConditions: 100 nM, CHO cell membranes, [3H]arginine vasopressin, values without parentheses
valueKind: inhibition at 0.1 µM
Be sure to follow the number with its unit.

Example entries and their recorded answers appear below.
compound: COc1ccccc1-c1ccc(C(=O)N2Cc3ccc(C(=O)N4CCCN(C)CC4)n3Cc3ccccc32)cc1C [Example 62]
inhibition at 0.1 µM: 27%

compound: COc1cc(C(=O)N2Cc3ccc(C(=O)N4CCCN(C)CC4)n3Cc3ccccc32)ccc1-c1cccc2ccccc12 [Example 68]
inhibition at 0.1 µM: 29%

compound: Cc1ccccc1-c1ccc(C(=O)N2Cc3ccc(C(=O)NCCN4CCCCC4)n3Cc3ccccc32)cc1 [Example 153]
inhibition at 0.1 µM: 11%

compound: CCOc1ccccc1-c1cc(OC)c(C(=O)N2Cc3cccn3Cc3ccccc32)cc1Cl [Example 17]
inhibition at 0.1 µM: 32%

Kindly give each listed record's inhibition at 0.1 µM.
1. COc1ccccc1-c1ccc(C(=O)N2Cc3ccc(C(=O)N4CCCN(C)CC4)n3Cc3ccccc32)cc1OC [Example 69]
2. Cc1ccccc1-c1ccc(C(=O)N2Cc3ccc(C(=O)N4CCCN(C)CC4)n3Cc3ccccc32)cc1C [Example 63]
3. C=CCN1CCN(C(=O)c2ccc3n2Cc2ccccc2N(C(=O)c2ccc(-c4ccccc4C(F)(F)F)c(C)c2)C3)CC1 [Example 230]
4. COc1cc2c(cc1OC)N(C(=O)c1ccc(-c3ccccc3C(F)(F)F)c(C)c1)Cc1cccn1C2 [Example 12]
5. COc1ccccc1-c1ccc(C(=O)N2Cc3ccc(C(=O)N4CCC(N5CCCCC5)CC4)n3Cc3ccccc32)cc1OC [Example 119]
6. Cc1ccccc1-c1ccc(C(=O)N2Cc3ccc(C(=O)N(C)C4CCN(C)C4)n3Cc3ccccc32)cc1 (stereo not drawn) [Example 188]
7. COc1cccc(-c2ccc(C(=O)N3Cc4ccc(C(=O)N5CCCN(C)CC5)n4Cc4ccccc43)cc2OC)c1 [Example 70]

1. 22%
2. 9%
3. 4%
4. -1%
5. 15%
6. 10%
7. 11%

Dear reader, for each entry below, please note its inhibition at 0.1 µM.
1. COc1ccccc1-c1ccc(C(=O)N2Cc3ccc(C(=O)N(C)C4CCN(C)CC4)n3Cc3ccccc32)cc1OC [Example 183]
2. COc1ccccc1-c1ccc(C(=O)N2Cc3ccc(C(=O)NCCCn4ccnc4)n3Cc3ccccc32)cc1 [Example 126]
3. COc1cc(C(=O)N2Cc3ccc(C(=O)N4CCC(N5CCCCC5)CC4)n3Cc3ccccc32)ccc1-c1cccc2ccccc12 [Example 118]
4. COc1cc(C(=O)N2Cc3ccc(C(=O)N4CCN(CCCN(C)C)CC4)n3Cc3ccccc32)ccc1-n1c(C)ccc1C [Example 320]

18%
18%
39%
21%

====

Let's go through some recorded pIC50 values for human oxytocin receptor (Homo sapiens) together.
Give bare numbers, as −log10 of the molar value.

compoundString: Cc1cc(C(=O)N2Cc3ccc(C(=O)N4CCN(CCN(C)C)CC4)n3Cc3ccccc32)ccc1-c1ccccc1C(F)(F)F
pIC50: 7.93

compoundString: Cc1cc(C(=O)N2Cc3ccc(C(=O)N4CCN(C)CC4)n3Cc3ccccc32)ccc1-c1ccccc1C(F)(F)F
pIC50: 7.90

compoundString: Cc1cc(C(=O)N2Cc3ccc(C(=O)N(C)CCCN(C)C)n3Cc3ccccc32)ccc1-c1ccccc1C(F)(F)F
pIC50: 8.15

Can you look up pIC50 on human oxytocin receptor (Homo sapiens) for C=CCN1CCN(C(=O)c2ccc3n2Cc2ccccc2N(C(=O)c2ccc(-c4ccccc4OC)cc2)C3)CC1 ?
7.95
